- Tested on: NCI-H23 lung
- TEST SUMMARY: NCI tumour cell line growth inhibition, 48 h
PARAMETER MEASURED: TGI (µM)
# unit: µM | format: bare number

# count of solved cases: 4
INSERT INTO assay_data (molecule, parameter_measured, endpoint_result) VALUES
  ('COC(=O)c1c(O)ccc2c1c1c(n2Cc2ccc(OC)cc2)C(=O)c2ccccc2C1=O', 'TGI', 32.2),
  ('Cc1cccc(C)c1NC(=O)/C(Cl)=C(/Cl)C(=O)O', 'TGI', 38.6),
  ('CC(=O)c1cc2c(s1)C(=O)c1scc(C(C)=O)c1C2=O', 'TGI', 1.72),
  ('COc1cc(Cl)cc(-c2nn(C(=O)NCCN3CCN(C)CC3)cc2-c2ccncc2)c1', 'TGI', 82);

The measured TGI associated with O=C(NC1CC1)c1ccc(-c2nc3ccc4[nH]ncc4c3c3c2CCCC3)cc1 reads 31.3

The measured TGI associated with COc1ccc2c(c1)c(=O)c1c(NCCCN(C)CCCNc3ccc4c(=O)n(CCN(C)C)c(=O)n5c6ccc(OC)cc6c(=O)c3c45)ccc3c(=O)n(CCN(C)C)c(=O)n2c31 reads 0.704

---

- Test system: UO-31 renal
- TEST SUMMARY: NCI tumour cell line growth inhibition, 48 h
PARAMETER MEASURED: TGI

# count of solved cases: 5
INSERT INTO assay_data (compound, endpoint_result) VALUES
  ('CN1c2ccccc2C(=O)NC12CCN(Cc1ccccc1)CC2', '> 100 µM'),
  ('O=C(Nc1ccc(Cl)cc1)c1cccc([N+](=O)[O-])c1O', '6.56 µM'),
  ('CCN(CC)c1ccc(/C=c2\nc(-c3ccccc3)n3c2nc2ccccc23)cc1', '> 100 µM'),
  ('Clc1ccc(-n2nnc(C3=NCCCN3)c2-c2ccccc2)cc1', '> 100 µM'),
  ('Fc1ccc(C2NC(=S)NC3=C2CCOc2c3ccc3ccccc23)cc1 (stereo unspecified)', '> 100 µM');

Let's switch to this compound now.
The measured TGI associated with CC(=O)N1CC(C)(C)c2c1cc(C)c(O)c2C reads > 100 µM

---

Property: TGI; scope: individual compounds
- Tested on: BT-549 breast
- TEST SUMMARY: NCI tumour cell line growth inhibition, 48 h
# unit: µM | format: bare number

INSERT INTO results (compound, parameter_measured, result_unit, endpoint_result) VALUES
  ('CC1(C)NCCC[C@]2(C)[C@H]3C=CC4=C5C[C@](C)(CO)CC[C@]5(C)CC[C@@]4(C)[C@]3(C)CC[C@@H]12', 'TGI', 'µM', 12.7),
  ('CC(=O)OC(CC(C)C)P1(=O)N(CC(C)(C)C)[C@@H]2CCCC[C@H]2N1CC(C)(C)C (some centres undefined)', 'TGI', 'µM', 29.2),
  ('N#CN=C1c2ccccc2C(=NC#N)c2cc(CO)ccc21', 'TGI', 'µM', 95.6),
  ('CCCc1ccc(S(=O)(=O)N[C@H]2CC[C@H]3[C@@H]4CCc5cc(O)ccc5[C@H]4CC[C@]23C)cc1', 'TGI', 'µM', 5.89);

The reported TGI value, BT-549 breast, for FC(F)(F)c1cccc(COCCN2CCN(Cc3cccc(C(F)(F)F)c3)CC2)c1 reads 29.6

---

- Tested on: OVCAR-4 ovarian
- TEST SUMMARY: NCI tumour cell line growth inhibition, 48 h
PARAMETER MEASURED: TGI

# count of solved cases: 4
INSERT INTO measurements (compound, endpoint_result) VALUES
  ('CC(C)=CCC/C(=C\CC/C(=C\CCc1ccoc1)C(=O)O)C(=O)O', '> 100 µM'),
  ('COc1ccc2c([nH]c3cc(O)c(C)cc32)c1C=O', '> 25 µM'),
  ('COc1ccc(C2S/C(=C\c3cc(OC)c(OC)c(OC)c3)C(=O)N2NC(=O)Cc2ccccc2)cc1 (stereo not drawn)', '> 100 µM'),
  ('O=C(Nc1ccc(-n2cc(-c3ccncc3)c(-c3ccc(Cl)c(O)c3)n2)cc1)Nc1cc(C(F)(F)F)cc(C(F)(F)F)c1', '3.98 µM');

The reported TGI value, OVCAR-4 ovarian, for C=CC[C@H]1C[C@@]2(C)OC[C@H](C(C)C)N2C1=O reads > 100 µM

The reported TGI value, OVCAR-4 ovarian, for CCN(CC)c1ccc(/C=c2\nc(-c3ccccc3)n3c2nc2ccccc23)cc1 reads 32.2 µM

The reported TGI value, OVCAR-4 ovarian, for CCC1=C[C@@H]2CN(C1)Cc1c([nH]c3ccccc13)[C@@](C(=O)OC)(c1cc3c(cc1OC)N(C=O)[C@H]1[C@@](O)(C(=O)OC)[C@H](OC(C)=O)[C@]4(CC)[C@@H]5C[C@@H]5CN5CC[C@]31[C@@H]54)C2 reads > 6.25 µM

The reported TGI value, OVCAR-4 ovarian, for Cc1ccc(C2(N3CCCC3)OC(C)(C)c3cccc4cccc2c34)cc1 (stereo not drawn) reads 27.6 µM

---

- System: HCT-15 colon
- TEST SUMMARY: NCI tumour cell line growth inhibition, 48 h
PARAMETER MEASURED: GI50

# count of solved cases: 4
INSERT INTO assay_data (compound, target_of_assay, parameter_measured, endpoint_result) VALUES
  ('O=C(NC1CC1)c1ccc(-c2nc3ccc4[nH]ncc4c3c3c2CCCC3)cc1', 'HCT-15 colon', 'GI50', '1580 nM'),
  ('CN(NC(=O)CC(=O)NN(C)C(=S)c1ccccc1)C(=S)c1ccccc1', 'HCT-15 colon', 'GI50', '32100 nM'),
  ('CCOC(=O)CCCn1c(SC)nc2cc(-c3ccco3)[nH]c2c1=O', 'HCT-15 colon', 'GI50', '> 100000 nM'),
  ('COc1cc(C(=O)O[C@H](C(=O)NCCNC(=O)[C@@H](OC(=O)c2cc(OC)cc3c(C)cccc23)[C@]2(C)CO2)[C@]2(C)CO2)c2cccc(C)c2c1', 'HCT-15 colon', 'GI50', '179 nM');

The measured GI50 associated with CCC1=C[C@@H]2CN(C1)Cc1c([nH]c3ccccc13)[C@@](C(=O)OC)(c1cc3c(cc1OC)N(C=O)[C@H]1[C@@](O)(C(=O)OC)[C@H](OC(C)=O)[C@]4(CC)[C@@H]5C[C@@H]5CN5CC[C@]31[C@@H]54)C2 reads 107 nM

The measured GI50 associated with C/C=C(\C)C(=O)N[C@H]1[C@@H](OC(C)=O)C[C@]2(C)C3CC[C@@]4(C)C(CC[C@@H]4C(C)N(C)C)C3CCC2[C@H]1O (some centres not stated) reads 1460 nM

The measured GI50 associated with O=C(c1cc(F)c(Cl)cc1Cl)N1N=C(c2ccccc2)CC1(O)c1ccccc1 (configuration not stated) reads 13800 nM

---

- Tested on: SNB-75 CNS
- TEST SUMMARY: NCI tumour cell line growth inhibition, 48 h
Property: TGI; scope: individual compounds
# unit: µM | format: bare number

# count of solved cases: 3
INSERT INTO assay_data (molecular_string, target_of_assay, endpoint_result) VALUES
  ('COc1ccc2c(c1)c(=O)c1c(NCCCN(C)CCCNc3ccc4c(=O)n(CCN(C)C)c(=O)n5c6ccc(OC)cc6c(=O)c3c45)ccc3c(=O)n(CCN(C)C)c(=O)n2c31', 'SNB-75 CNS', 0.216),
  ('Cn1ccc2c(NCCN)c3c(c(NCCN)c21)C(=O)c1ccccc1C3=O', 'SNB-75 CNS', 44.5),
  ('CCOC(=O)CCCn1c(SC)nc2cc(-c3ccco3)[nH]c2c1=O', 'SNB-75 CNS', 17.7);

Let's switch to this compound now.
The measured TGI associated with O=c1[nH]nc(Cc2ccccc2)n1/N=C/c1ccc([N+](=O)[O-])o1 reads 15

---

- Test system: DU-145 prostate
- TEST SUMMARY: NCI tumour cell line growth inhibition, 48 h; in the data active = GI50 below about 0.43 µM; inactive = the rest
Output constraint: value belongs to active, inactive

Study these solved cases before continuing.
INSERT INTO results (molecule, discrete_label) VALUES
  ('Nc1ccc(C(=O)c2ccc(N)c(Br)c2)cc1Br', 'active'),
  ('N#CC1=C(N)NC(=S)NC12Nc1ccccc1O2 (centres undefined)', 'inactive'),
  ('COC(=O)COc1ccc(/C=C2\N=C(c3ccccc3)N(c3cc(C(F)(F)F)ccc3Cl)C2=O)cc1', 'inactive'),
  ('COC(=O)NC/C=C\c1nc(CC/C=C\C(=O)OC2CC3CC(=O)O[C@H](/C=C/CC(C)C)C[C@H]4CCC(C)C(C[C@H](OC)CC(C2)O3)O4)co1 (some centres undefined)', 'inactive'),
  ('CCCCCNC(=O)[C@@H]1CCCN2C(=O)CC[C@H](NC(=O)[C@H](Cc3ccc(OP(=O)(O)O)cc3)NC(C)=O)C(=O)N12', 'inactive');

INPUT: Field: outcome | Entry: COc1cc(Cl)cc(-c2nn(C(=O)NCCN3CCN(C)CC3)cc2-c2ccncc2)c1
OUTPUT: inactive

INPUT: Field: outcome | Entry: COc1ccc(CNc2nc3cc(N)cc(N)c3nc2-c2ccccc2)cc1OC
OUTPUT: inactive

INPUT: Field: outcome | Entry: C=C1C(=O)O[C@@H]2C1C[C@@H](O)/C(C)=C/C/C=C(\C)CCC[C@H](C)[C@H]2OC(C)=O (some centres undefined)
OUTPUT: inactive

INPUT: Field: outcome | Entry: CCOC(=O)CCCn1c(SC)nc2cc(-c3ccco3)[nH]c2c1=O
OUTPUT: inactive
